tested.on: T1, biotinylated human BCMA-Fc, Avitag recombinant protein (ACRO Biosystems, #BC7-H82F0) (human, UniProt Q02223 1-54, biotinylated)
T1 construct: extracellular domain; Bought protein; also called human BCMA protein; recombinant human BCMA-ECD-Fc; not shown: Fc of the bought fusion protein; Avitag
T1 sequence (looked up): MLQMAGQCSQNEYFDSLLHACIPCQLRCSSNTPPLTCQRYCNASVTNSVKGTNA
procedure.details: BLI, dissociation rate relative to the original molecule PR001046 VH
readout: Kdis fold
Give the figure by itself; no unit, no explanation.

binder	Kdis fold
PR004561, PR001046 VH-derived single-domain variant 1046-R2-10H1 (VHH, Tested as VH single domain with Flag and His tags; not shown: Flag and His tags) VHH: EVQLVETGGGLIQPGGSLRLSCAASGFTVSDSYMTWVRQAPGKGLEWVSVIFSGGNTYYADSVKGRFTISRDNAKNTLYLQMNSLRAEDTALYYCARRNYDQTLGTDVFDIWGQGTMVTVSS	0.43
PR004562, PR001046 VH-derived single-domain variant 1046-R2-10H5 (VHH, Tested as VH single domain with Flag and His tags; not shown: Flag and His tags) VHH: EVQLVETGGGLIQPGGSLRLSCAASGFTVSDSYMTWVRQAPGKGLEWVSVIFSGGKTYYSDSVKGRFTISRDNAKNTLYLQMNSLRAEDTALYYCARRNYDQTLGTDVFDIWGQGTMVTVSS	0.31
PR004564, PR001046 VH-derived single-domain variant 1046-R2-2D4 (VHH, Tested as VH single domain with Flag and His tags; not shown: Flag and His tags) VHH: EVQLVETGGGLIQPGGSLRLSCAASGFTVSDSYMTWVRQAPGKGLEWVSVIFSGGRTYYSDSVKGRFTISRDNAKNTLYLQMNSLRAEDTALYYCARRNYDQTLGTDVFDIWGQGTMVTVSS	0.33
PR004565, PR001046 VH-derived single-domain variant 1046-R2-2G4 (VHH, Tested as VH single domain with Flag and His tags; not shown: Flag and His tags) VHH: EVQLVETGGGLIQPGGSLRLSCAASGFTVSDAYMTWVRQAPGKGLEWVSVIFSGGNTYVSDSVKGRFTISRDNAKNTLYLQMNSLRAEDTALYYCARRNYDQTIGTDVFDIWGQGTMVTVSS	0.34

Let us move to another entry and its Kdis fold.
Q: Endpoint output: Kdis fold of PR004567, PR001046 VH-derived single-domain variant 1046-R2-5E1 (VHH, Tested as VH single domain with Flag and His tags; not shown: Flag and His tags) VHH: EVQLVETGGGLIQPGGSLRLSCAASGFTVSDSYMTWVRQAPGKGLEWVSVIFSGGKTYVADSVKGRFTISRDNAKNTLYLQMNSLRAEDTALYYCARRNYDQTRGTDVFDIWGQGTMVTVSS . Value?
Result: 0.29

The origin of these recorded values is patent US20230322953A1.
